- Procedure text: drug combination growth inhibition, ovarian cancer – cell-based, oncology-focused library, rucaparib conditional, profiling panel (AID 1508598)
- Experimental context: patient-derived ovarian cancer cells, CellTiter-Glo viability, 144 h; at 0.00122 µM; OCI-C5x cells; without rucaparib
Active and inactive are the calls of the source.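 The calls were made as follows: active = normalized viability below 100% at a tested concentration; inactive = the rest.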
Write down the outcome that applies. Available outcomes: active, inactive

Cc1nc(N)sc1-c1ccnc(Nc2ccc(N3CCOCC3)cc2)n1	inactive
NC(=O)Nc1cc(-c2cccc(F)c2)sc1C(=O)N[C@H]1CCCNC1	active
C#Cc1cccc(Nc2ncnc3cc(OCCOC)c(OCCO)cc23)c1	inactive
CN[C@H]1CN(c2ccc3c(=O)c(C(=O)O)cn(-c4nccs4)c3n2)C[C@@H]1OC	inactive
Nc1cc(C(F)(F)F)c(-c2cc(N3CCOCC3)nc(N3CCOCC3)n2)cn1	inactive

# outcome recorded in this test, key = `Cc1cnc(NC(=O)Nc2cc(Br)c(C)cc2OC[C@@H]2CNCCO2)cn1`
active

# outcome recorded in this test, key = `O=C(Cc1ccc(-c2ccc(OCCN3CCOCC3)cc2)cn1)NCc1ccccc1`
inactive

Attribution: PubChem BioAssay
